# measuredTarget: T1, monomeric hActRIIB (human, UniProt Q13705 19-134, limits assumed)
# T1 construct: also called ActRIIB MONOMER; ActRIIB monomer
# T1 sequence (Q13705 19-134 limits assumed): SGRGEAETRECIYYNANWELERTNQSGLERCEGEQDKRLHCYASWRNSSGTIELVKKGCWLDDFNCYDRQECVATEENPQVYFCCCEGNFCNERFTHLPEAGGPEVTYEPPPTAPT
# test: SPR (Biacore), 37 C, antibody captured on anti-hFc IgG chip, monomeric ActRIIB injected, 1:1 model
# Description: Kinetic characterization of J01, K01, L01, M01, N01, and P01 antibodies binding to monomeric and dimeric hActRIIB and hActRIIA was performed using standard BIACORE®-based analysis at 37° C. In brief, antibodies were captured on anti-hFclgG Biacore chips and different concentrations of dimeric and monomeric ActRIIB or ActRIIA were injected in duplicates over the captured antibody and control surface. […] The equilibrium binding constant KD was determined by the ratio of binding rate constants kd/kₐ
kon by entry:
Write the answer as a number in M⁻¹ s⁻¹, unit excluded.

// known answers, use as guide
binder	reported
L01 (antibody, human IgG1, kappa, V domains shown, Naive human IgG; also called L01 antibody; mAB L01) VH: QLQLQESGPGLVKPSETLSLTCTVSGGSISSSSYYWGWIRQPPGKGLEWIGSISYSGSTYYNPSLKSRVTISVDTSKNQFSLKLSSVTAADTAVYYCARDSLRYGMDVWGQGTTVTVSS VL: EIVMTQSPATLSVSPGERATLSCRASQSVSSNLAWYQQKPGQAPRLLIYGASTRATGIPARFSGSGSGTEFTLTISSLQSEDFAVYYCQVYNVWPRTFGGGTKVEIKR	921000
N01 (antibody, human IgG1, kappa, V domains shown, also called N01 antibody; mAB N01) VH: QLQLQESGPGLVKPSETLSLTCTVSGGSISSSSYYWGWIRQPPGKGLEWIGSISYSGSTYYNPSLKSRVTISVDTSKNQFSLKLSSVTAADTAVYYCARDSLRYGMDVWGQGTTVTVSS VL: DIQMTQSPSTLSASVGDRVTITCRASQSIGSWLAWYQQKPGKAPKLLIYKASSLESGVPSRFSGSGSGTEFTLTISSLQPDDFATYYCQVYGSYSPRTFGGGTKVEIKR	416000
M01 (antibody, V domains shown, Optimized human IgG; It was captured through its Fc on an anti-hFc IgG chip; also called M01 antibody; mAB M01) VH: EVQLLESGGGLVQPGGSLRLSCAASGFTFGSYGMTWVRQAPGKGLEWVSVISGSGGGTYYADSVKGRFTISRDNSKNTLYLQMNSLRAEDTAVYYCAKGPRVVGMDVWGQGTTVTVSS VL: DIQMTQSPSSVSASVGDRVTITCRASQGISSWLAWYQQKPGKAPKLLIYAASSLQSGVPSRFSGSGSGTDYTLTISSLQPEDFATYYCQQVFSYPLTFGGGTKVEIK	1.16e+06

Given the entry J01 (antibody, V domains shown, also called J01 antibody; mAB J01) VH: QVQLVQSGAEVKKPGASVKVSCKASGYTFTSYRMHWVRQAPGQGLEWMGFIVPSGGSTSYAQKFQGRVTMTRDTSTSTVYMELSSLRSEDTAVYYCARVSRYAPEPMDVWGQGTTVTVSS VL: DIQMTQSPSSVSASVGDRVTITCRASQGISRWLAWYQQKPGKAPKLLIYAASSLQSGVPSRFSGSGSGTDFTLTISSLQPEDFATYYCQQAFSHPWTFGGGTKVEIK , report its measured kon.
1.05e+06
